Let's look at some compounds and their measured half-life at 0.196 mg/mL.
Experiment: Hydrolysis of prodrug into acting drug (rebamipide) in whole blood of rat, HPLC
Format: in vitro ADME
Details: half life of conversion from prodrug to rebamipide, read-out: Conversion Time in Whole Rat Blood (t1/2)

# example entries with known answers
[[record]]
compound = "O=C(NC(Cc1cc(=O)[nH]c2ccccc12)C(=O)SCCN1CCCC1)c1ccc(Cl)cc1 (stereo not shown)"
measured_parameter = "half-life at 0.196 mg/mL"
test_value = "< 2 min"

[[record]]
compound = "O=C(COC(=O)C(Cc1cc(=O)[nH]c2ccccc12)NC(=O)c1ccc(Cl)cc1)OCCN1CCOCC1 (stereo not shown)"
measured_parameter = "half-life at 0.196 mg/mL"
test_value = "< 2 min"

[[record]]
compound = "CCC(OC(=O)C(Cc1cc(=O)[nH]c2ccccc12)NC(=O)c1ccc(Cl)cc1)C(=O)OCCN1CCOCC1 (stereo not shown)"
measured_parameter = "half-life at 0.196 mg/mL"
test_value = "< 2 min"


Look at this compound and give its reported half-life at 0.196 mg/mL. O=C(NC(Cc1cc(=O)[nH]c2ccccc12)C(=O)OCCN1CCOCC1)c1ccc(Cl)cc1 (stereo not shown)
2.57 min
